# Test system: PPARg:RXRa 270nM:90nM, anti-RXR (NR concentration 270 nM, RXRa partner concentration 90 nM)
# test.method.notes: PBM binding z-score (relative to random genomic background probes); higher = stronger binding; sequences stand for … in GC…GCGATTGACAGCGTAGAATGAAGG

[
  {
    "input.sequence": "ATATGTAGGTTATCGGGTCATTCATTTTGCGCAT",
    "PBM binding z-score": 6.11
  },
  {
    "input.sequence": "CCTTACGGGTCACTCCAGGTTCTAGCATCGGAGT",
    "PBM binding z-score": 3.49
  },
  {
    "input.sequence": "GCTGCTAGGTCGACTGATGGTCAGCTAAAGCTCG",
    "PBM binding z-score": -0.365
  },
  {
    "input.sequence": "TCGAGTAGGTTACGGGGGCATGCAGGGATGAAGA",
    "PBM binding z-score": 5.69
  }
]
